This collection of values is drawn from patent EP2759295A1.

target: p300 (Homo sapiens, UniProt Q09472); construct: purchased Biomol International, Inc. / Enzo Life Sciences; test: MALDI-TOF MS acetylation assay; type: biochemical; conditions: corrected by conversion factor according to Wu et al.; read-out: Corrected IC50
Sequence (Q09472 whole entry, species assumed): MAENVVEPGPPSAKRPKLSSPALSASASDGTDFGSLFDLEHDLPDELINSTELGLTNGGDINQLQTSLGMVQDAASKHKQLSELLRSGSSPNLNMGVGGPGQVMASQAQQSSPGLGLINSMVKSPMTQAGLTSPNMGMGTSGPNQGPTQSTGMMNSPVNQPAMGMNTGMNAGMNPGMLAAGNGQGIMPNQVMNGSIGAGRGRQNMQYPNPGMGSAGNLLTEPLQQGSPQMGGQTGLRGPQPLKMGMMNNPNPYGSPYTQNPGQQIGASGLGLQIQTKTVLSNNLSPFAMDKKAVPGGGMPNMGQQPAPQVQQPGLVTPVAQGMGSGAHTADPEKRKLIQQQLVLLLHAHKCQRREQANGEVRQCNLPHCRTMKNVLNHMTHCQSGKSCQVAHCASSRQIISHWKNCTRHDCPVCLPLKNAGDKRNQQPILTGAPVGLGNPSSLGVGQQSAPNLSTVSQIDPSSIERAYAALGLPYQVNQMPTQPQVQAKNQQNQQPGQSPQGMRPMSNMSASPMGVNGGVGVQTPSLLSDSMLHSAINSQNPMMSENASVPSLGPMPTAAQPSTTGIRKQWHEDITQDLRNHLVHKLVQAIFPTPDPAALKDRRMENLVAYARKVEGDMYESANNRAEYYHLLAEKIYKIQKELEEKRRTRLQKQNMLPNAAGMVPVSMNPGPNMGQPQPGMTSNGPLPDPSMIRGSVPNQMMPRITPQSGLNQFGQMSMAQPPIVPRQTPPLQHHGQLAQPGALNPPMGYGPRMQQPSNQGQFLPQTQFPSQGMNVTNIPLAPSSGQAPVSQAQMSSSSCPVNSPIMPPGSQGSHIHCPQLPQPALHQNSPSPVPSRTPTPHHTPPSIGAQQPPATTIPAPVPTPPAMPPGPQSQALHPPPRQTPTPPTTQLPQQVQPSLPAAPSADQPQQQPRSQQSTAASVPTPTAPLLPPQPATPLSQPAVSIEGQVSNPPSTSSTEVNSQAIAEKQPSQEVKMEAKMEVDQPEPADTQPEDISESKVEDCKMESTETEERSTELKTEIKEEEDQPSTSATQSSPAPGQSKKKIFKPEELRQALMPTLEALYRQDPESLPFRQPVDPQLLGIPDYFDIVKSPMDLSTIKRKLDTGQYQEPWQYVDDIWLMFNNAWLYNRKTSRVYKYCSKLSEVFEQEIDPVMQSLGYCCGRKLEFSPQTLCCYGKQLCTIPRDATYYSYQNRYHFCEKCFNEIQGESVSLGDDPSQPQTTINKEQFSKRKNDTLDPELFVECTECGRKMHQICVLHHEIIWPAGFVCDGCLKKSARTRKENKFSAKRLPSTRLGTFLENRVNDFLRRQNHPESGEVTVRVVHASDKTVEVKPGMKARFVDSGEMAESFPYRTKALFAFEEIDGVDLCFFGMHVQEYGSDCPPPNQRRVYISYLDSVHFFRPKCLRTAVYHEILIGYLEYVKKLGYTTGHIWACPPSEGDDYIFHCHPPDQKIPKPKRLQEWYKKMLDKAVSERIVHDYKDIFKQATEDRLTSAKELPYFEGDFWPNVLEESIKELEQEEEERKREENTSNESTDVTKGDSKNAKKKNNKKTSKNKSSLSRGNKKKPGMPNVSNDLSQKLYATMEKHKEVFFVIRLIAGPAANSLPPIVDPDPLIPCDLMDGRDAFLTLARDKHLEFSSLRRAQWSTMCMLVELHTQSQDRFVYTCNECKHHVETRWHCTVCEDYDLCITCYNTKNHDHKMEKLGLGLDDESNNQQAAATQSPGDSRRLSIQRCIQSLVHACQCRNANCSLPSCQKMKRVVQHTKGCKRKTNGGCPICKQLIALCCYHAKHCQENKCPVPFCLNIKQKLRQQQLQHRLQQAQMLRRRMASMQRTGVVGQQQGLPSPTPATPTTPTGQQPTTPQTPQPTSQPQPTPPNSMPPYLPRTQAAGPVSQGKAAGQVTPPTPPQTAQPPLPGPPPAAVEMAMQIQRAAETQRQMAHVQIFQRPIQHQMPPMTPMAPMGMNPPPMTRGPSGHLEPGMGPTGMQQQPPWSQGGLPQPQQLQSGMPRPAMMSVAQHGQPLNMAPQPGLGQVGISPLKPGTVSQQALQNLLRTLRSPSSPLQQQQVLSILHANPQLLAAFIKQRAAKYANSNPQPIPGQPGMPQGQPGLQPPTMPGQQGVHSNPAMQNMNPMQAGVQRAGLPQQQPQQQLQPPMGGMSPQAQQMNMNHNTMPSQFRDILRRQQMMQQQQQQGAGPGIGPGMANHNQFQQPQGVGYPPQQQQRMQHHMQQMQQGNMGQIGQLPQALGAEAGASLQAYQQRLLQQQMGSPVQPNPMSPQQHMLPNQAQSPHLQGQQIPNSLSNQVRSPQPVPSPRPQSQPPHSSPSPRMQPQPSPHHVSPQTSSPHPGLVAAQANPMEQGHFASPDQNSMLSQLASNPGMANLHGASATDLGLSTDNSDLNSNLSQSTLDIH
quantityName: pIC50
Here pIC50 is given on a logarithmic scale as minus log10 of the concentration in mol/L.

Please give measured pIC50 of the following entry: CC(C)=CCc1c(O)cc(O)c2c(=O)c(O)c(-c3ccc(O)c(O)c3)oc12 [NP 9]
5.77

----------
molecular target: p300 (Homo sapiens); construct: purchased Biomol International, Inc. / Enzo Life Sciences; assay: MALDI-TOF MS acetylation assay; format: biochemical; conditions: MALDI MS assay; read-out: IC50 value
quantityName: pIC50
Please keep in mind that pIC50 is minus log10 of the molar concentration; only the number is needed.

Report pIC50, nothing else, for this molecule: CC(C)=CCc1c(O)cc(O)c2c(=O)c(O)c(-c3ccc(O)c(O)c3)oc12
5.77
